Where do these numbers come from? They come from the supplement of paper PMC13207355.

# Tested on: E21 (patient-derived glioblastoma stem cells of mesenchymal subtype)
# MEASUREMENT PROTOCOL: phenotypic distance (Euclidean, principal components) from DMSO controls (arbitrary units); higher = stronger morphological change;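 note: cell Painting imaging in 384-well plates, CellProfiler features reduced to at least 20 principal components, Euclidean distance versus same-plate DMSO vehicle wells (0.1% v/v), median over six images per well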
# REPORTED CONDITIONS: 12.3 nM; exposure time: 72 h
Counter-ions that a name gives are not always drawn.

{"columns": ["COMPOUND", "TARGET OR TEST SYSTEM", "phenotypic distance"],
 "data": [
  ["CCn1c(-c2nonc2N)nc2cnc(Oc3cccc(NC(=O)c4ccc(OCCN5CCOCC5)cc4)c3)cc21", "E21", 2.27],
  ["Oc1ccc(OCc2ccccc2)cc1 [Monobenzone]", "E21", 0.297],
  ["CC(C)C[C@H](NC(=O)CNC(=O)c1cc(Cl)ccc1Cl)B1OC(=O)C(CC(=O)O)(CC(=O)O)O1 [MLN9708]", "E21", 7.71],
  ["c1ccc2c(c1)[I+]c1ccccc1-2 [Diphenyleneiodonium chloride]", "E21", 1.85],
  ["Nc1ccn([C@@H]2O[C@H](CO)[C@@H](O)C2(F)F)c(=O)n1 [Gemcitabine HCl]", "E21", 4.48],
  ["CCC(C)(C)C(=O)O[C@H]1C[C@@H](C)C=C2C=C[C@H](C)[C@H](CC[C@@H]3C[C@@H](O)CC(=O)O3)[C@H]21 [Simvastatin]", "E21", 1.96],
  ["CN(C)C(=O)Oc1ccc[n+](C)c1 [Pyridostigmine iodide]", "E21", 0.565],
  ["N=C(NCCCCCCNC(=N)NC(=N)Nc1ccc(Cl)cc1)NC(=N)Nc1ccc(Cl)cc1 [Chlorhexidine]", "E21", 0.828]
]}

###

# Tested on: E28 (patient-derived glioblastoma stem cells of classical subtype)
# MEASUREMENT PROTOCOL: phenotypic distance (Euclidean, principal components) from DMSO controls (arbitrary units); higher = stronger morphological change
# REPORTED CONDITIONS: 1000 nM; exposure time: 72 h
Structures can show the parent of a compound that is named as a salt.
Measured phenotypic distance accompanies every entry in the list below.

{"columns": ["MOLECULE", "phenotypic distance"],
 "data": [
  ["O=C1c2c(O)ccc(O)c2C(=O)c2c(NCCNCCO)ccc(NCCNCCO)c21", 3.17],
  ["CC(C)NCC(O)COc1cccc2ccccc12 (stereo not drawn) [Propranolol hydrochloride]", 0.509],
  ["c1ccc2c(c1)[I+]c1ccccc1-2 [Diphenyleneiodonium chloride]", 2.98],
  ["CN1C(=O)OC(C)(C)C1=O", 0.385],
  ["CC(C)C[C@H](NC(=O)[C@H](Cc1ccccc1)C[C@@H](O)[C@H](Cc1ccccc1)NC(=O)OC(C)(C)C)C(=O)N[C@@H](Cc1ccccc1)C(N)=O", 0.79],
  ["COc1cc2c[n+](C)c3c4cc5c(cc4ccc3c2cc1OC)OCO5 [Nitidine chloride]", 2.93],
  ["Cc1cc(C(C)(C)CC(C)(C)C)ccc1OCCOCC[N+](C)(C)Cc1ccccc1 [Methyl benzethonium chloride]", 1.45],
  ["CCCSc1ccc2[nH]c(NC(=O)OC)nc2c1", 3.22]
]}

###

# System: FT3469 (normal neural stem cell line)
# MEASUREMENT PROTOCOL: phenotypic distance (Euclidean, principal components) from DMSO controls (arbitrary units); higher = stronger morphological change
# REPORTED CONDITIONS: 3000 nM; exposure time: 72 h
Would you mind labelling by phenotypic distance? At or over 0.8 is t, under is f.

{"columns": ["SMILES STRING", "LABEL"],
 "data": [
  ["COc1ccc([C@@H]2CC(=O)c3c(O)cc(O[C@@H]4O[C@H](CO[C@@H]5O[C@@H](C)[C@H](O)[C@@H](O)[C@H]5O)[C@@H](O)[C@H](O)[C@H]4O)cc3O2)cc1O", "f"],
  ["CC(C)C[C@@H](C(=O)N[C@H](C(=O)OC1CCCC1)c1ccccc1)[C@H](O)C(=O)NO", "t"],
  ["CCN1CCN(C(=O)Cc2ccc(Nc3ncc(F)c(Nc4ccc(C(=O)Nc5ccccc5Cl)cc4)n3)cc2)CC1", "t"],
  ["COc1cc(NS(C)(=O)=O)ccc1Nc1c2ccccc2nc2ccccc12", "t"],
  ["C[C@@H](O)[C@H]1C(=O)N2C(C(=O)O)=C(S[C@@H]3CN[C@H](C(=O)N(C)C)C3)[C@H](C)[C@H]12", "f"]
]}
